- Tested on: Fibroblast
- ASSAY REMARKS: Multiplex assay against human fibroblast
- Assay type: toxicity, cell-based
- COND: 48 h, 1 µM, compound concentration 1 uM, replicate 1
The following molecules are shown together with reported Population Hoechst High Intensity Objects (%) values.
Hi! Could you send only the number? It should be in %, unit omitted.

Cc1cc(C)c(S(=O)(=O)N(Cc2ccc(-c3cccc(S(C)(=O)=O)c3)cc2)Cc2ccc(C(F)(F)F)o2)c(C)c1 | 8
CCOc1cc2ncc(C#N)c(Nc3ccc(OCc4ccccn4)c(Cl)c3)c2cc1NC(=O)/C=C/CN(C)C | 18
S=C(NCCCc1c[nH]cn1)NCCCN(Cc1ccc(Cl)c(Cl)c1)c1ccc(Br)cn1 | 20
CCOc1cc(C(=O)N2CCC(N3CCN(C)CC3)CC2)ccc1Nc1ncc2c(n1)N(C1CCCC1)c1ccccc1C(=O)N2C | 15

// recorded Population Hoechst High Intensity Objects (%) for O=C(Nc1ccc(-n2nc(-c3cccnc3)cc2C(F)(F)F)cn1)c1ccc(-c2ccccc2)c(F)c1 : 9

Recorded Population Hoechst High Intensity Objects (%) (molecule Cc1cn(-c2cc(NC(=O)c3ccc(C)c(Nc4nccc(-c5cccnc5)n4)c3)cc(C(F)(F)F)c2)cn1 ): 16

Consider CCN1CCN(Cc2ccc(Nc3ncc(F)c(-c4cc(F)c5nc(C)n(C(C)C)c5c4)n3)nc2)CC1.CS(=O)(=O)O . Its measured Population Hoechst High Intensity Objects (%) is 37

Recorded Population Hoechst High Intensity Objects (%) (molecule O=C(Nc1ccc(Cl)cc1)Nc1cccc(-c2cccc(N3CCCC3)n2)c1 ): 14

Lab note: measured Population Hoechst High Intensity Objects (%) of CN(C)C(=O)C(CCN1CCC(O)(c2ccc(Cl)cc2)CC1)(c1ccccc1)c1ccccc1.Cl [LOPERAMIDE HYDROCHLORIDE] was 14
